Values from PubChem BioAssay (NCI)

# Test system: OVCAR-4 ovarian
# Test Description: NCI tumour cell line growth inhibition, 48 h
Property Measured: TGI

Incoming: So what's the measured TGI for this one? CCOC(=O)c1c(N2CCOCC2)[nH]c(=O)c(C(c2c(O)c(C(=O)OCC)c(N3CCOCC3)[nH]c2=O)C(C)C)c1O
Outgoing: > 100 µM

Incoming: Now the same for Fc1cc(C2=C[C@H](c3ccc4c(c3)OCO4)NC(=S)N2)c(Cl)cc1Cl
Outgoing: > 100 µM

Incoming: Lookup O=C(CC(=O)C(=O)CC(=O)OCc1ccccc1)OCc1ccccc1
Outgoing: > 100 µM

Incoming: How about NC(=O)c1ncn(C2OC(CO)C(O)C2O)n1 (stereo unspecified) ?
Outgoing: > 100 µM

Incoming: Next molecule: COc1c(Nc2ncc(Cl)c(N[C@@H]3[C@H]4C=CC(C4)[C@@H]3C(N)=O)n2)ccc2c1CC[C@@H](N1CCOCC1)CC2
Outgoing: 23 µM

Incoming: Here is the next molecule: N#Cc1cc(-c2ccccc2)[nH]c1-c1nccc2ccccc12
Outgoing: > 100 µM

Incoming: Next entry: COC1OC(COCc2ccc(Cl)cc2)C(OCc2ccc(Cl)cc2)C1O (stereo unspecified)
Outgoing: > 100 µM

Incoming: // next record CC(C)(C)C1CCC2c3c([nH]c4ccccc34)C3C(=O)N(c4cccc(Cl)c4)C(=O)C3C2C1 (stereo unspecified)
Outgoing: 58.1 µM

Incoming: What do you get for NC(=O)c1cccc(N)c1 ?
Outgoing: > 100 µM

Incoming: O=P(O)(O)OP(=O)(O)O ?
Outgoing: > 100 µM

Incoming: Repeat for the following molecule: C/C(=N/NC(=S)N1CCCCCC1)c1ccccc1O
Outgoing: > 33.9 µM
